# assay-setup: in acetonitrile, 318.15 K
readout-label: solubility (mole fraction)
# output: bare number, no unit

Query :: What does the data say about its solubility (mole fraction)? Entry: CCN(CC)C(=S)SSC(=S)N(CC)CC
Result :: 0.184

###

# assay-setup: in methanol, 278.15 K
readout-label: solubility (mole fraction)

Query :: What does the data say about its solubility (mole fraction)? Entry: CCN(CC)C(=S)SSC(=S)N(CC)CC
Result :: 0.00105

###

# assay-setup: in isobutanol, 313.15 K
readout-label: solubility (mole fraction)

Query :: What does the data say about its solubility (mole fraction)? Entry: CCN(CC)C(=S)SSC(=S)N(CC)CC
Result :: 0.011
